- target.or.system: PE-labeled human PD-L1-Ig binding to Jurkat cell line over-expressing human PD-1 (Jurkat-PD-1) (Homo sapiens, UniProt Q15116)
- Construct: expressed in transfected cells; host or cells: Jurkat
- Sequence (Q15116 25-288): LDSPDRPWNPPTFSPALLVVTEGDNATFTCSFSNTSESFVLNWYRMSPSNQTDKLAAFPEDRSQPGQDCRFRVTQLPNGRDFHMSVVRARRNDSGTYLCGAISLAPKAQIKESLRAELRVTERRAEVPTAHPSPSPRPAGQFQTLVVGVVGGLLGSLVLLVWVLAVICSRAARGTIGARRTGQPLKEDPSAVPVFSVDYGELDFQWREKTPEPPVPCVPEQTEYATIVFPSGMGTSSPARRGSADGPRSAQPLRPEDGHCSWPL
- measurement.notes: Jurkat-PD-1 Cell Binding High-Content Screening Assay (CBA): Method 1
- conditions.used: Jurkat-hPD-1 cells, PE-labeled PD-L1-Ig 20 nM final; read-out: Jurkat HPDL1 PD1 IC50 (uM) (Method 1)
Bridge positions count the residues as written; N and C are the ends. Square brackets hold non-standard residues; d marks the D form. Peptide text beside a SMILES is read from it. Bip = N[C@@H](Cc1ccc(-c2ccccc2)cc1)C(=O)O; NMeA = CN[C@@H](C)C(=O)O; Dab = NCC[C@H](N)C(=O)O
experimental.endpoint: IC50 (µM)
Respond numerically; units are µM and should not be typed.

Noted for CC(C)C[C@@H]1NC(=O)[C@H](CCN)NC(=O)[C@@H](CC(C)C)NC(=O)[C@H](C)N(C)C(=O)[C@H](C(C)C)NC(=O)[C@H](Cc2ccc(-c3ccccc3)cc2)NC(=O)[C@H](C(C)C)NC(=O)[C@H](Cc2c[nH]c3ccccc23)NC(=O)[C@H](CC(=O)O)NC(=O)[C@H](Cc2ccc(O)cc2)NC(=O)[C@H](CCN)NC(=O)CSC[C@@H](C(=O)N[C@@H](C)C(N)=O)NC(=O)[C@H]([C@@H](C)O)NC(=O)[C@H](C(C)C)NC1=O [Compound 1361] ({CH2CO}-[Dab]YDWV[Bip]V[NMeA][dL][Dab]LVTCA-NH2; thioether N-14) : its IC50 reads 0.01

Where these numbers come from: patent US20240409585A1
